The reported numbers originate from ChEMBL document CHEMBL3232883.

Target: Estrogen receptor (Homo sapiens, UniProt P03372)
Sequence (P03372 whole entry): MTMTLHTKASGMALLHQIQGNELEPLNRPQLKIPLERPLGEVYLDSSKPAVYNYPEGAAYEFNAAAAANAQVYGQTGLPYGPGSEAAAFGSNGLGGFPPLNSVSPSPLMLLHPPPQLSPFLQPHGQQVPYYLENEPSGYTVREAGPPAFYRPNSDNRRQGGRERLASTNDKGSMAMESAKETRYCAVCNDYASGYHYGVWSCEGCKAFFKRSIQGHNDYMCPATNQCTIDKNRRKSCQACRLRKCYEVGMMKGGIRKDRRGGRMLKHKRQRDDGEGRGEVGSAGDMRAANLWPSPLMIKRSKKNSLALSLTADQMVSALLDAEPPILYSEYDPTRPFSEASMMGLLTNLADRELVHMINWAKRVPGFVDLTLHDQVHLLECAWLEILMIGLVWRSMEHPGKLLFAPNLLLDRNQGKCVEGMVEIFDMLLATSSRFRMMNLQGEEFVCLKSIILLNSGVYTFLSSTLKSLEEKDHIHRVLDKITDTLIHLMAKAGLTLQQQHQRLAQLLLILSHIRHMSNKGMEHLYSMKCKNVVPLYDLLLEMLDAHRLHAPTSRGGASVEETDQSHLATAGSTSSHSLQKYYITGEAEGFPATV
Test: Agonist activity at ERalpha (unknown origin) expressed in human HepG2 cells assessed as transcriptional activation after 24 hrs by ERE-luciferase reporter gene assay
pEC50: −log10 of the molar value.
Outcome measure: pEC50

Prompt: Please list pEC50 recorded for the molecule Cc1ccccc1N=C(c1ccc(O)cc1)c1ccc(O)cc1
Response: 8.15

I = Oc1ccc(C(=Nc2cccc(Cl)c2)c2ccc(O)cc2)cc1
II = Cc1ccc(/N=C(\c2ccc(O)cc2)c2ccc(O)cc2O)cc1
Prompt: For I and II , which recorded pEC50 is lower? Record your answer as the label of the chosen record.
Response: II

====

Target: Estrogen receptor beta (Homo sapiens)
Sequence (Q92731 whole entry): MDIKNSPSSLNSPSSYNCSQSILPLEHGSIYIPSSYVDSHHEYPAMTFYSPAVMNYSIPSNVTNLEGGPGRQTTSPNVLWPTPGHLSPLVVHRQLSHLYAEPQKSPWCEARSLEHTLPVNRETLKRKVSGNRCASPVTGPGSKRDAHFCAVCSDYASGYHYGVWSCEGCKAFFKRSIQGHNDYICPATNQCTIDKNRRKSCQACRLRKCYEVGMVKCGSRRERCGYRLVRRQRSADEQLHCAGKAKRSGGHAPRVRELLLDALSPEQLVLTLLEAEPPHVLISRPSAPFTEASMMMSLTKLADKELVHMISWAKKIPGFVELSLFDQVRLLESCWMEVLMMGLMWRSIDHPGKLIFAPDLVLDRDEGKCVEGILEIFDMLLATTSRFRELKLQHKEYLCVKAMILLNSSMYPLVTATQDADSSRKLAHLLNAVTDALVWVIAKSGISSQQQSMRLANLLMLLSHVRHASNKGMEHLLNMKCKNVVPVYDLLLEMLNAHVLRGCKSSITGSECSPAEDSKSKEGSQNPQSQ
Test: Displacement of [3H]-estradiol from human full-length ERbeta after 18 to 24 hrs by competitive radiometric binding assay relative to estradiol
Outcome measure: RBA (%)

Solved entries (count: 3):
Prompt: With Estrogen receptor beta (Homo sapiens) as the test system, provide measured RBA for this compound: Oc1ccc(C(=Nc2cccc(C(F)(F)F)c2)c2ccc(O)cc2)cc1
Response: 139

Prompt: With Estrogen receptor beta (Homo sapiens) as the test system, provide measured RBA for this compound: Oc1ccc(C(=Nc2ccccc2Cl)c2ccc(O)cc2)cc1
Response: 97

Prompt: With Estrogen receptor beta (Homo sapiens) as the test system, provide measured RBA for this compound: Cc1cccc(/N=C(\c2ccc(O)cc2)c2ccc(O)cc2O)c1
Response: 38.1

1 = Cc1ccccc1/N=C(\c1ccc(O)cc1)c1ccc(O)cc1O
2 = Oc1ccc(/C(=N\c2ccccc2)c2ccc(O)cc2O)cc1
Prompt: Compare the recorded RBA of 1 and 2 ; state which is larger. Record your answer as the label of the chosen record.
Response: 1

1 = Cc1ccccc1N=C(c1ccc(O)cc1)c1ccc(O)cc1
2 = COc1ccc(/N=C(\c2ccc(O)cc2)c2ccc(O)cc2O)cc1
Prompt: Compare the recorded RBA of 1 and 2 ; state which is larger. Record your answer as the label of the chosen record.
Response: 1

====

Molecular target: UniProtKB Q92731
Assay: Agonist activity at ERbeta (unknown origin) expressed in human HepG2 cells assessed as transcriptional activation after 24 hrs by ERE-luciferase reporter gene assay relative to 17beta-estradiol
Type: cell-based
Outcome measure: Efficacy (%)

A = Oc1ccc(/C(=N\c2cccc(C(F)(F)F)c2)c2ccc(O)cc2O)cc1
B = Oc1ccc(C(=Nc2ccccc2)c2ccc(O)cc2)cc1
Prompt: Compare the recorded Efficacy of A and B ; state which is larger. Record your answer as the label of the chosen record.
Response: B

====

Biological target: UniProtKB Q92731
Test: Antagonist activity at ERbeta (unknown origin) expressed in human HepG2 cells assessed as inhibition of 17beta-estradiol-induced transcriptional activation after 24 hrs by ERE-luciferase reporter gene assay
Outcome measure: IC50 (nM)

Solved entries (count: 2):
Prompt: Please list IC50 recorded for the compound Cc1ccc(N=C(c2ccc(O)cc2)c2ccc(O)cc2)cc1
Response: 45

Prompt: Please list IC50 recorded for the compound Oc1ccc(/C(=N\c2ccc(Br)cc2)c2ccc(O)cc2O)cc1
Response: 100

a = Oc1ccc(/C(=N\c2ccc(F)cc2)c2ccc(O)cc2O)cc1
b = Cc1cccc(N=C(c2ccc(O)cc2)c2ccc(O)cc2)c1
c = Oc1ccc(/C(=N\c2ccccc2)c2ccc(O)cc2O)cc1
d = Oc1ccc(/C(=N\c2cccc(Cl)c2)c2ccc(O)cc2O)cc1
Prompt: Rank items: key IC50, increasing. Your reply should list the labels following the order given in the request.
Response: c, b, d, a
(c: 6 nM, b: 41 nM, d: 67 nM, a: 139 nM)
